Taken from ChEMBL document CHEMBL2417368.

Molecular target: UniProt:P43490
Sequence (P43490 whole entry): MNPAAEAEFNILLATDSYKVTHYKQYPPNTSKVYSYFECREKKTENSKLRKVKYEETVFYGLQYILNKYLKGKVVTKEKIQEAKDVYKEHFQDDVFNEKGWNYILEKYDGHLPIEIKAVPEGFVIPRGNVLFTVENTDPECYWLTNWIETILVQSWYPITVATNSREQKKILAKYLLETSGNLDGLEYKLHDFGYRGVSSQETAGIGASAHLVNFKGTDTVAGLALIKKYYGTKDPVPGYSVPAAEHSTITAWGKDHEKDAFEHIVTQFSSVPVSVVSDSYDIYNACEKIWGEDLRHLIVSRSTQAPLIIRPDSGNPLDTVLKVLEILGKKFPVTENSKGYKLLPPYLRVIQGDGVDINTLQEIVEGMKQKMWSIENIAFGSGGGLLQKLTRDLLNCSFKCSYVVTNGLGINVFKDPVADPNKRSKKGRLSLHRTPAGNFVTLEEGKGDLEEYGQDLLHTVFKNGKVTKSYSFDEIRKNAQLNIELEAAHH
Binarize IC50 at 20 nM; below is YES, at or above is NO.

> print(dat)
                                    compound  label.value
 1  CC(NC(=O)c1cc2cnccc2[nH]1)c1ccc(S(=O)(=O)N2CCCCC2)cc1 (stereo unspecified)           NO
 2  O=C(Nc1ccc(S(=O)(=O)N2CCCCC2)cc1)c1cc2cnccc2[nH]1           NO
 3  O=C(NCc1ccc(S(=O)(=O)c2ccccc2)cc1)c1cc(-c2cccnc2)[nH]n1           NO
 4  O=C(NCc1ccc(S(=O)(=O)c2ccccc2)cc1)c1ccc2nccn2c1          YES
 5  O=C(NCc1ccc(S(=O)(=O)c2ccccc2C(F)(F)F)cc1)c1cc2cnccc2[nH]1           NO
 6  O=C(NCc1ccc(S(=O)(=O)c2ccccc2)cc1)c1ccc2cncn2c1           NO
 7  O=C(NCc1ccc(S(=O)(=O)c2cccc(C(F)(F)F)c2)cc1)c1cc2ccncc2o1          YES
 8  O=C(NCc1ccc(S(=O)(=O)c2ccc(N3CCOCC3)nc2)cc1)c1cc2ccncc2s1          YES
 9  O=C(NCc1ccc(S(=O)(=O)N2CCCCC2)cc1)c1cnc2nccn2c1          YES
10  O=C(NCc1ccc(S(=O)(=O)N2CCCCC2)cc1)c1cc2cnccc2s1           NO
11  O=C(NCc1ccc(S(=O)(=O)c2cccc(C(F)(F)F)c2)cc1)c1cnc2nccn2c1          YES

---

Assay: Intrinsic clearance in CD-1 mouse hepatocytes at 1 uM after 10 mins by LC-MS/MS analysis
Format: ADME, cell-based, Hepatocyte
Settings: read-out: CLH
MEASURED_QUANTITY: CLint scaled at 1 µM (mL/min/kg)

> print(dat)
                                   molecule     measured.quantity  quantity.unit  val
1  O=C(NCc1ccc(S(=O)(=O)c2cc(F)cc(F)c2)cc1)c1cc2ccncc2s1  CLint scaled at 1 µM      mL/min/kg   78
2  O=C(NCc1ccc(S(=O)(=O)c2ccc(N3CCOCC3)nc2)cc1)c1cnc2nccn2c1  CLint scaled at 1 µM      mL/min/kg   69
3  N#CN=C(NCCCCCCOc1ccc(Cl)cc1)Nc1ccncc1 [CHS-828]  CLint scaled at 1 µM      mL/min/kg   21
4  O=C(NCc1ccc(S(=O)(=O)c2cccc(C(F)(F)F)c2)cc1)c1cc2ccncc2o1  CLint scaled at 1 µM      mL/min/kg   25
5  O=C(NCc1ccc(S(=O)(=O)c2cc(F)cc(F)c2)cc1)c1ccc2nccn2c1  CLint scaled at 1 µM      mL/min/kg   42
6  O=C(NCc1ccc(S(=O)(=O)c2cc(F)cc(F)c2)cc1)c1cc2cnccc2[nH]1  CLint scaled at 1 µM      mL/min/kg   70

---

Assay: Fraction unbound in mouse plasma at 5 uM after 4 hrs by LC-MS/MS analysis
Format: ADME, cell-free
MEASURED_QUANTITY: fraction unbound at 4 h, 5 µM

> print(dat)
                            compound.string    val
1  O=C(/C=C/c1cccnc1)NCCCCC1CCN(C(=O)c2ccccc2)CC1  0.033
2  O=C(NCc1ccc(S(=O)(=O)c2cc(F)cc(F)c2)cc1)c1cc2ccncc2s1  0.011
3  O=C(NCc1ccc(S(=O)(=O)c2cc(F)cc(F)c2)cc1)c1cnc2nccn2c1  0.133
4  O=C(NCc1ccc(S(=O)(=O)c2cccc(C(F)(F)F)c2)cc1)c1cc2ccncc2s1  0.002
5  O=C(NCc1ccc(S(=O)(=O)c2ccc(N3CCOCC3)nc2)cc1)c1cc2cnccc2[nH]1  0.015
6  O=C(NCc1ccc(S(=O)(=O)c2cc(F)cc(F)c2)cc1)c1ccc2nccn2c1  0.067
7     N#CN=C(NCCCCCCOc1ccc(Cl)cc1)Nc1ccncc1  0.005
8  O=C(NCc1ccc(S(=O)(=O)c2ccc(N3CCOCC3)nc2)cc1)c1ccc2nccn2c1  0.025

---

compounds and their reported remaining at 0.5 h, 1 µM
Assay: Metabolic stability in human liver microsomes assessed as compound remaining at 1 uM after 30 mins LC-MS analysis
Format: ADME, Microsome
Settings: liver microsomes, read-out: Stability
MEASURED_QUANTITY: remaining at 0.5 h, 1 µM (%)

> print(dat)
                            compound.string  val
1  O=C(NCCc1ccc(S(=O)(=O)c2ccccc2)cc1)c1cc2cnccc2[nH]1   64
2  Cc1ccccc1S(=O)(=O)c1ccc(CNC(=O)c2cc3cnccc3[nH]2)cc1   48
3  O=C(NCc1ccc(S(=O)(=O)c2ccccc2C(F)(F)F)cc1)c1cc2cnccc2[nH]1   52
4  O=C(NCc1ccc(S(=O)(=O)c2ccc(F)c(F)c2)cc1)c1cc2cnccc2[nH]1  100
5  O=C(NCc1ccc(S(=O)(=O)c2ccccc2)cc1)c1nc2cnccc2[nH]1   73
6  O=C(NCc1ccc(S(=O)(=O)N2CCCCC2)cc1)c1cc2cnccc2[nH]1   44
7  Cc1cccc(S(=O)(=O)c2ccc(CNC(=O)c3cc4cnccc4[nH]3)cc2)c1   49
8  O=C(NCc1ccc(S(=O)(=O)c2ccccc2)cc1)c1ccc2ccncc2c1   46

---

Assay: Metabolic stability in mouse liver microsomes assessed as compound remaining at 1 uM after 30 mins LC-MS analysis
Format: ADME, Microsome
Conditions: liver microsomes, read-out: Stability
Grouping by measured remaining at 0.5 h, 1 µM is done with the following cut points: low (below 20%), middle (20% to below 40%), high (40% or more)

> print(dat)
                                    molecule  label.value
 1  O=C(/C=C/c1cccnc1)NCCCCC1CCN(C(=O)c2ccccc2)CC1          low
 2  O=C(NCc1ccc(S(=O)(=O)c2ccccc2)cc1)c1ccc2cnccc2c1          low
 3  O=C(NCc1ccc(S(=O)(=O)c2ccccc2)cc1)c1nc2cnccc2[nH]1          low
 4  Cc1ccccc1S(=O)(=O)c1ccc(CNC(=O)c2cc3cnccc3[nH]2)cc1          low
 5  O=C(NCc1ccc(S(=O)(=O)c2ccccc2)cc1)c1nc2ccncc2s1       middle
 6  O=C(NCc1ccc(S(=O)(=O)c2ccc(C(F)(F)F)cc2)cc1)c1cc2cnccc2[nH]1         high
 7  O=C(NCc1ccc(S(=O)(=O)c2cccc(F)c2)cc1)c1cc2cnccc2[nH]1         high
 8  O=C(NCc1ccc(S(=O)(=O)c2ccccc2)cc1)c1ccc2nncn2c1         high
 9     N#CN=C(NCCCCCCOc1ccc(Cl)cc1)Nc1ccncc1         high
10  O=C(NCc1ccc(S(=O)(=O)c2cc(F)cc(F)c2)cc1)c1cc2ccncc2s1       middle
11  O=C(NCc1ccc(S(=O)(=O)c2ccccc2)cc1)c1ccc2ccncc2c1          low
12  O=C(NCc1ccc(S(=O)(=O)c2cc(F)cc(F)c2)cc1)c1cc2cnccc2[nH]1         high
13  O=C(NCc1ccc(S(=O)(=O)c2cccc(C(F)(F)F)c2)cc1)c1cc2ccncc2o1         high
14  O=C(NCc1ccc(S(=O)(=O)c2ccccc2)cc1)c1cc2cnccc2[nH]1         high
15  O=C(NCc1ccc(S(=O)(=O)c2cccc(C(F)(F)F)c2)cc1)c1cnc2nccn2c1       middle
16  O=C(NCc1ccc(S(=O)(=O)c2cc(F)cc(F)c2)cc1)c1cnc2nccn2c1         high
17  O=C(NCc1ccc(S(=O)(=O)N2CCCCC2)cc1)c1ccc2nccn2c1          low
18  O=C(NCc1ccc(S(=O)(=O)c2ccc(N3CCOCC3)nc2)cc1)c1cc2ccncc2s1       middle
19  CC(NC(=O)c1cc2cnccc2[nH]1)c1ccc(S(=O)(=O)N2CCCCC2)cc1 (stereo not drawn)          low
20  O=C(NCc1ccc(S(=O)(=O)c2ccccc2)cc1)c1cc(-c2cccnc2)[nH]n1         high
21  O=C(NCc1ccc(S(=O)(=O)c2ccc(N3CCOCC3)nc2)cc1)c1cc2ccncc2o1         high
